meta.source: ChEMBL document CHEMBL1123931

- tgt: Trifunctional purine biosynthetic protein adenosine-3 (Mus musculus, UniProt Q64737)
- Sequence (Q64737 whole entry): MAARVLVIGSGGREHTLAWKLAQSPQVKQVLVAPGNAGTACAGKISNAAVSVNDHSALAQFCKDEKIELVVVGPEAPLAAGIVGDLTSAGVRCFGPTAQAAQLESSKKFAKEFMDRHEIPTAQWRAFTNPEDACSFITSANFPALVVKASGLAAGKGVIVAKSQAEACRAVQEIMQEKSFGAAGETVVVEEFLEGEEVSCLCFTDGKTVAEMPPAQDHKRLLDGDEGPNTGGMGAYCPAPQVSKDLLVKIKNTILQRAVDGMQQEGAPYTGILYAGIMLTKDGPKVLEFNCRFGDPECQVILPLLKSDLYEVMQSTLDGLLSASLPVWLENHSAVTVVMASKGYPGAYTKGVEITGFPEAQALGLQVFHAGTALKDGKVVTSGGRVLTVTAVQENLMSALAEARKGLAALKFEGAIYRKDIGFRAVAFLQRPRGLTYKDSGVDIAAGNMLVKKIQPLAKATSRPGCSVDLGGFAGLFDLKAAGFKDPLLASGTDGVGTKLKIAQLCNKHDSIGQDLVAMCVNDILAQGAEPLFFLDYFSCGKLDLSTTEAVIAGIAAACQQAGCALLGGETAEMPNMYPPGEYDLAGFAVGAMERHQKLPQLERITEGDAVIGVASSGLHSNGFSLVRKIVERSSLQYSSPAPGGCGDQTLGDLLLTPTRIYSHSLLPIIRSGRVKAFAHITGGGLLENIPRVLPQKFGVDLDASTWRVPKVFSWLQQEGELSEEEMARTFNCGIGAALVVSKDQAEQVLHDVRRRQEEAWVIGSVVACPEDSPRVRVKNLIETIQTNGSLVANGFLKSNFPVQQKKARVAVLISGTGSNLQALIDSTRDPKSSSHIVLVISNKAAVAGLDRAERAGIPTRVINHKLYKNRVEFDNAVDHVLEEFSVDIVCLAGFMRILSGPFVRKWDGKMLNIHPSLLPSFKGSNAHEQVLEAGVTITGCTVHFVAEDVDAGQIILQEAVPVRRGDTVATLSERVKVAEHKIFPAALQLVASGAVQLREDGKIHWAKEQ
- experimental.protocol: Inhibition of GAR transformylase isolated from the murine lymphoma cell line L5178Y
- Format: cell-free
assay.readout: pKi
Friendly reminder that pKi comes from taking -log10 of the concentration in mol/L.

pKi recorded for this compound, CCN(Cc1ccc2nc(N)nc(O)c2c1)c1ccc(C(=O)NC(CCC(=O)O)C(=O)O)cc1 (stereo unspecified) , is 4.80

###

Task for the reader: assign each of the following compounds its reported log10 Ki.
- tgt: Trifunctional purine biosynthetic protein adenosine-3 (Mus musculus, UniProt Q64737)
- experimental.protocol: Inhibition of GAR transformylase isolated from murine lymphoma cell line L5178Y
- Format: cell-free
Reminder: these figures are log10 of reported Ki, in µM before transformation.

log10 Ki recorded for this compound, Nc1nc2ccc(CN(CC(=O)O)c3ccc(C(=O)NC(CCC(=O)O)C(=O)O)cc3)cc2c(=O)[nH]1 (stereo not drawn) , is 0.70

log10 Ki recorded for this compound, C#CCN(Cc1ccc2[nH]c(N)nc(=O)c2c1)c1ccc(C(=O)NC(CCC(=O)O)C(=O)O)cc1 (stereo not drawn) , is 0.78

log10 Ki recorded for this compound, Nc1nc(O)c2cc(CNc3ccc(C(=O)NC(CCC(=O)O)C(=O)O)cc3)ccc2n1 (stereo not drawn) [DIDEAZAFOLATE] , is 0.30

log10 Ki recorded for this compound, Nc1nc(O)c2cc(CN(CC(=O)c3ccccc3)c3ccc(C(=O)NC(CCC(=O)O)C(=O)O)cc3)ccc2n1 (stereo not drawn) , is 0.48

log10 Ki recorded for this compound, Nc1nc2ccc(CN(Cc3c[nH]c(=O)[nH]c3=O)c3ccc(C(=O)NC(CCC(=O)O)C(=O)O)cc3)cc2c(=O)[nH]1 (stereo not drawn) , is 0.85

log10 Ki recorded for this compound, Nc1nc2ccc(CN(CCC(=O)O)c3ccc(C(=O)NC(CCC(=O)O)C(=O)O)cc3)cc2c(=O)[nH]1 (stereo not drawn) , is 1.51

log10 Ki recorded for this compound, N#CCCCN(Cc1ccc2nc(N)nc(O)c2c1)c1ccc(C(=O)NC(CCC(=O)O)C(=O)O)cc1 (stereo not drawn) , is 1.04

log10 Ki recorded for this compound, CC(=O)N(Cc1ccc2nc(N)[nH]c(=O)c2c1)c1ccc(C(=O)NC(CCC(=O)O)C(=O)O)cc1 (stereo not drawn) , is 0.11
